Target: 5-hydroxytryptamine receptor 4 (Cavia porcellus)
Sequence (O70528 whole entry): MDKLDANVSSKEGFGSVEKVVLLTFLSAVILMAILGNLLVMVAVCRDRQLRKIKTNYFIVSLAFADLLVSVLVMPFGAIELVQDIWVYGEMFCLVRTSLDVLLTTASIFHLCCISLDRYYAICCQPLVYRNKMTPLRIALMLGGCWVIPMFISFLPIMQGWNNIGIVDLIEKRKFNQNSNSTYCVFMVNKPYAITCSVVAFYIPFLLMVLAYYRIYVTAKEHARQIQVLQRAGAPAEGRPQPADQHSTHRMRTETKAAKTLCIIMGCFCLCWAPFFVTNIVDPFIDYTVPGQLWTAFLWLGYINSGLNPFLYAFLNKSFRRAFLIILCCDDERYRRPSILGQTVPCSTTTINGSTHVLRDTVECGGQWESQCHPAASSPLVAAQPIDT
measured-parameter: Ki

Problem: For the compound O=C1Nc2ccc(Cl)c3c2C1(CCCCN1CC=C(c2ccc(Cl)cc2)CC1)CCC3 (stereo unspecified) , what Ki is on record?
Result: > 1000 nM

----------
Target: UniProt P28222
Sequence (P28222 whole entry): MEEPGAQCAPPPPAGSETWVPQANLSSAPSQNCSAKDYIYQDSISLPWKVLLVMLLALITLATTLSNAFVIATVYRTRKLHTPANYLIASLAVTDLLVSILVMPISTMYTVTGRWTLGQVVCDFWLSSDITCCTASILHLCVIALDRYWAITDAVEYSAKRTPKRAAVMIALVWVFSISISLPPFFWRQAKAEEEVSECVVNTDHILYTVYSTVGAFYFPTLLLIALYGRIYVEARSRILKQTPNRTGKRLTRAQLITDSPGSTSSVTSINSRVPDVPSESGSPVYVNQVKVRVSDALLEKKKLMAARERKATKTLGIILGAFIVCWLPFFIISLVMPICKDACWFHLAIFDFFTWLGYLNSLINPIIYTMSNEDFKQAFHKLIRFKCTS
Assay: Binding affinity towards 5-HT1B receptor by the displacement of [3H][…]] in human recombinant receptors in mammalian cell
measured-parameter: Ki

Problem: Can you share its Ki? I mean this molecule: O=C1Nc2ccc(Cl)c3c2C1(CCCCN1CC=C(c2ccc(Cl)cc2)CC1)CCC3 (stereo unspecified)
Result: > 1000 nM

----------
Molecular target: UniProt:P08908
Sequence (P08908 whole entry): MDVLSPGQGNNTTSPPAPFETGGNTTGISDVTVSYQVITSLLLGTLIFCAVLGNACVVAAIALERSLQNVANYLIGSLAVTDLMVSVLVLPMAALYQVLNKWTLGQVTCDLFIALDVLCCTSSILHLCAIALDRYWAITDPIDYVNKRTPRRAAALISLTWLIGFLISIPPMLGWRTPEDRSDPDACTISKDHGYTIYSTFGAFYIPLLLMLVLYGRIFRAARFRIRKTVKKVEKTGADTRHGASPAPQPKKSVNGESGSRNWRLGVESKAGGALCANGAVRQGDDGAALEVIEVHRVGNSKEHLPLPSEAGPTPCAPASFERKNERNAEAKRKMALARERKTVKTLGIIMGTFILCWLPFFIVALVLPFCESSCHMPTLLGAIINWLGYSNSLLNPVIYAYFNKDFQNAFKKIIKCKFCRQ
Assay: Binding affinity towards 5-HT1A receptor by the displacement of [3H]-8-OH-DPAT] in human recombinant receptors in mammalian cell
measured-parameter: Ki (nM)
State just the number; it will be interpreted in nM.

Problem: Entry O=C1Nc2ccc(Cl)c3c2C1(CCCCN1CC=C(c2ccc(Cl)cc2)CC1)CCC3 (stereo unspecified) : reported Ki = ?
Result: 316

----------
Molecular target: UniProt P28335
Sequence (P28335 whole entry): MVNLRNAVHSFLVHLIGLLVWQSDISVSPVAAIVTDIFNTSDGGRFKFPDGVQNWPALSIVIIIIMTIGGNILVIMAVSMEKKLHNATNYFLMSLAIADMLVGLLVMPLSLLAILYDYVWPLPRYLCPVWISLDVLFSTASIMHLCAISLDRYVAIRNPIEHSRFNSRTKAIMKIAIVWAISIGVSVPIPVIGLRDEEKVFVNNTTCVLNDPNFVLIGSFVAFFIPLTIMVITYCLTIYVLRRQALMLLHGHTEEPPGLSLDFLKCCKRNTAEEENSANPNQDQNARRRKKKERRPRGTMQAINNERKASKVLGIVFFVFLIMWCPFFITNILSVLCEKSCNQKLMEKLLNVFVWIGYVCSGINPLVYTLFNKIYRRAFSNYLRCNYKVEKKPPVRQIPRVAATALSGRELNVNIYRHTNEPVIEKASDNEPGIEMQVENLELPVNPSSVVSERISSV
Experiment: Binding affinity towards 5-HT2C receptor by the displacement of [3H]mesulergine] in human recombinant receptors in mammalian cell
pKi: −log10 of the molar value.
measured-parameter: pKi

Problem: Sample O=C1Nc2ccc(Cl)c3c2C1(CCCCN1CC=C(c2ccc(Cl)cc2)CC1)CCC3 (stereo unspecified) — what was its pKi?
Result: < 6.00

----------
Recorded measurements of Log Ki, one per entry
Target: Serotonin 2 (5-HT2) receptor (Rattus norvegicus, UniProt P30994+P08909+P14842)
Assay: Binding affinity towards 5-hydroxytryptamine 2 receptor by the displacement of [3H]ketanserin in rat cerebral cortex membrane
Format: cell membranes

Please review the following examples before continuing.
> print(dat)
                                   molecule  measured.parameter   result
1  O=C1Nc2ccc(Cl)c3c2C1(CCCCN1CC=C(c2ccc(Cl)cc2)CC1)CCC3 (centres undefined)              Log Ki     > -6
2  O=C1Nc2ccc(Cl)c3c2C1(CCCCN1CC=C(c2ccccc2)CC1)CCC3 (centres undefined)              Log Ki   > -6.5
3  O=C1Nc2cccc3c2C1(CCCCN1CC=C(c2ccc(F)cc2)CC1)CCC3 (centres undefined)              Log Ki  > -7.18

Problem: Value lookup for Log Ki; key = O=C1Nc2ccc(Cl)c3c2C1(CCCCN1CC=C(c2ccc(F)cc2)CC1)CCC3 (centres undefined)
Result: > -6.64

----------
Biological target: 5-hydroxytryptamine receptor 6 (Homo sapiens, UniProt P50406)
Sequence (P50406 whole entry): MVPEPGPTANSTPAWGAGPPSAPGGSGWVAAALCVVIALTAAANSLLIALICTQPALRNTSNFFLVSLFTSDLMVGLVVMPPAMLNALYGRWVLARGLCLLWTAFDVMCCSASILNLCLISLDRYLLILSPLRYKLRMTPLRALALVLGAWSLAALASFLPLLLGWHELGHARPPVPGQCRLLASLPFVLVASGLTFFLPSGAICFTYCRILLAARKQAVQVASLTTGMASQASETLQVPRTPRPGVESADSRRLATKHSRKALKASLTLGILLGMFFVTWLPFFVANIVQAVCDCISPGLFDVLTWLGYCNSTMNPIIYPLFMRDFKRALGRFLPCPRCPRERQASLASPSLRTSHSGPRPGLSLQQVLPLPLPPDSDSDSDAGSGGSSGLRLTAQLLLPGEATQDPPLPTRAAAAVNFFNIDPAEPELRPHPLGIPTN
Experiment: Binding affinity towards human recombinant 5-hydroxytryptamine 6 receptor by the displacement of [3H]-5-CT]
measured-parameter: Ki

Problem: Form field: reported Ki of O=C1Nc2ccc(Cl)c3c2C1(CCCCN1CC=C(c2ccc(Cl)cc2)CC1)CCC3 (stereo unspecified)
Result: > 1000 nM
